Tested on: Aspergillus clavatus
Assay: Antimicrobial activity against Aspergillus clavatus MTCC 1323
Format: functional
readout.name: MIC99 (µg/mL)
Note: unit µg/mL is implicit; provide only the numeric part.

Input line: Value lookup for MIC99; key = O=c1c2ccccc2nc(-c2ccccc2Cl)n1CCc1ccc2nc(-c3ccccc3Cl)n(-c3ccccc3Cl)c(=O)c2c1
Output line: 100

Input line: Value lookup for MIC99; key = O=c1c2ccccc2nc(-c2ccccc2Cl)n1CCc1ccc2nc(-c3ccccc3Cl)n(-c3ccc([N+](=O)[O-])cc3)c(=O)c2c1
Output line: 500

Input line: Value lookup for MIC99; key = O=c1c2ccccc2nc(-c2ccccc2Cl)n1CCc1ccc2nc(-c3ccccc3Cl)n(-c3cccc([N+](=O)[O-])c3)c(=O)c2c1
Output line: 100

Input line: Value lookup for MIC99; key = O=c1c2ccccc2nc(-c2ccccc2Cl)n1CCc1ccc2nc(-c3ccccc3Cl)n(-c3c(Cl)cc([N+](=O)[O-])cc3Cl)c(=O)c2c1
Output line: 100

Input line: Value lookup for MIC99; key = O=c1c2ccccc2nc(-c2ccccc2Cl)n1CCc1ccc2nc(-c3ccccc3Cl)n(-c3ccccc3[N+](=O)[O-])c(=O)c2c1
Output line: 1000

Input line: Value lookup for MIC99; key = Cc1ccc(-n2c(-c3ccccc3Cl)nc3ccc(CCn4c(-c5ccccc5Cl)nc5ccccc5c4=O)cc3c2=O)c(C)c1
Output line: 500

Input line: Value lookup for MIC99; key = COc1ccc(-n2c(-c3ccccc3Cl)nc3ccc(CCn4c(-c5ccccc5Cl)nc5ccccc5c4=O)cc3c2=O)c([N+](=O)[O-])c1
Output line: 500
